Listing of entries alongside the reported IC50.
Biological target: human arginase I (ARG I) (Homo sapiens, UniProt P05089)
Sequence (P05089 whole entry): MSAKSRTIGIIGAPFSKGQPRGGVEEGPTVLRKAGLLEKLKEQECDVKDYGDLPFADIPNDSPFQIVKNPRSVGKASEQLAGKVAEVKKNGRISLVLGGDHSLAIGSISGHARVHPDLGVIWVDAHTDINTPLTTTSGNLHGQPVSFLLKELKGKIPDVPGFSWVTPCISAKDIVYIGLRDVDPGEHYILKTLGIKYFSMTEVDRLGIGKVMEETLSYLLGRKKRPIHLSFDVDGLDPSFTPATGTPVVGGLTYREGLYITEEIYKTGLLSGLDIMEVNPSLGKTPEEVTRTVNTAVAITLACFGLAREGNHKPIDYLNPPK
Test: Inhibition of arginase I, spectrophotometric urea assay at 530 nm
Type: biochemical
Settings: Formula II compounds, Table 2-A; read-out: Potency (ARG I)
Counter-ions that a name gives are not always drawn.

molecule: NC(CCCCB(O)O)(C(=O)O)C1CCN(Cc2ccc(Cl)c(Cl)c2)CC1 (centres unmarked) [Example 95-A, dihydrochloride]
IC50: 0.1 to 250 nM

molecule: N[C@@](CCCCB(O)O)(C(=O)O)[C@H]1CCN(c2ccc(Cl)cc2)C1 [12-A, hydrochloride]
IC50: 2000 to 5000 nM

molecule: NC(CCCCB(O)O)(C(=O)O)C1CCN(Cc2ccc(F)c3ccccc23)CC1 (centres unmarked)
IC50: 0.1 to 250 nM

molecule: NC(CCCCB(O)O)(C(=O)O)C1CCN(C(=O)Cc2ccc(Cl)cc2)CC1 (centres unmarked) [29-A, hydrochloride]
IC50: 1000 to 2000 nM

molecule: NC(CCCCB(O)O)(C(=O)O)C1CCN(Cc2csc3ccccc23)CC1 (centres unmarked) [Example 104-A, dihydrochloride]
IC50: 0.1 to 250 nM

molecule: NC(CCCCB(O)O)(C(=O)O)C1CCN(Cc2cccc3cccnc23)CC1 (centres unmarked) [Example 56-A, dihydrochloride]
IC50: 0.1 to 250 nM

molecule: NC(CCCCB(O)O)(C(=O)O)C1CCN(C(=O)c2ccc(Cl)cc2)CC1 (centres unmarked) [26-A, hydrochloride]
IC50: 2000 to 5000 nM

molecule: NC(CCCCB(O)O)(C(=O)O)C1CCN(c2ccc(C(F)(F)F)cn2)CC1 (centres unmarked) [1-A, hydrochloride]
IC50: 251 to 1000 nM

molecule: NC(CCCCB(O)O)(C(=O)O)C1CCN(c2cc(C(F)(F)F)c3ccccc3n2)CC1 (centres unmarked)
IC50: 251 to 1000 nM

molecule: NC(CCCCB(O)O)(C(=O)O)C1CCN(c2cc(C(F)(F)F)ccn2)CC1 (centres unmarked)
IC50: 1000 to 2000 nM

molecule: N#Cc1cccc(CN2CCC(C(N)(CCCCB(O)O)C(=O)O)CC2)c1 (centres unmarked) [Example 106-A, dihydrochloride]
IC50: 251 to 1000 nM
